Molecular target: AgSla1-D3
Assay: SPOT peptide array binding signal intensity (averaged, normalized) (arbitrary units (background-subtracted, floor 0; scale differs between SH3 domains)); higher = stronger binding of the SH3 domain to the peptide
Reported endpoint: SPOT peptide array binding signal intensity
Answers are plain numbers.

SSAAPPPPPRRATPE	12
AHFQPQRTAPKPPIS	1
DKSRPPRPPPKPLHL	9
DTFLPPPPPPPSNFE	0.5
PAPPPPPRASRPTPN	2

# input Which SPOT peptide array binding signal intensity value belongs to `GAGERPRLVPRPINV` ?
# output 1
